measurement-protocol: Absorption maxima of the chromogen and associated extinction coefficients
Type: physicochemical
condition-label: 0.1 mole/l. potassium phosphate buffer (pH 7.0), at the absorption maximum of the chromogen
measurement-kind: ε (extinction coefficient) (L/mol/cm)
Value expressed in L/mol/cm; do not type the unit.

>  <compound>
O=[N+]([O-])c1ccc(O)c(C(F)(F)F)c1

>  <assay-result>
18800

$$$$
>  <compound>
O=[N+]([O-])c1ccc(O)c(Cl)c1

>  <assay-result>
16600

$$$$
>  <compound>
N#Cc1cc([N+](=O)[O-])ccc1O [2-CN-4-nitrophenol, 2-Hydroxy-5-nitrobenzonitrile]

>  <assay-result>
15700

$$$$

Assign ε (extinction coefficient) to the following record: O=[N+]([O-])c1ccccc1O
2040

Reference source: patent US5254677A
